# credit: patent US20230235004A1

Biological target: T1, human MAdCAM expressed on cells (human, UniProt Q13477 19-382)
T1 construct: whole, on cells
T1 sequence (looked up): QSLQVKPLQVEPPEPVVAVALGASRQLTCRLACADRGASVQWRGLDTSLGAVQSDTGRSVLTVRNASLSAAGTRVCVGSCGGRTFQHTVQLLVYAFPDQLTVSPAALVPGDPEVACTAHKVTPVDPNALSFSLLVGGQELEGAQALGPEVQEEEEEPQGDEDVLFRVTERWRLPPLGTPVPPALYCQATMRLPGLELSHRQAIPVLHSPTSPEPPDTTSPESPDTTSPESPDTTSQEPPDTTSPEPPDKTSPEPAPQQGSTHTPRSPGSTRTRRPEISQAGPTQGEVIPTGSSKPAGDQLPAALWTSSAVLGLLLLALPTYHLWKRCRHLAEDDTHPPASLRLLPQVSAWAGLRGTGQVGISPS
Assay: cell binding

BINDER | binding result
MAdCAM antibody Table 1 clone 29 (scFv) scFv: QVQLVQSGAEVKKPGASVKVSCKASGYTFTSYYMHWVRQAPGQGLEWMAWMNPNSGNTGYAQKFQGRVTMTRDTSTSTVYMELSSLRSEDTAVYYCARDYDFWSGSLGYWGQGTLVTVSSGGGGSGGGGSGGGGSGGGGSDIQMTQSPSSLSASVGDRVTITCRASQGISNYLAWYQQKPGKAPKLLIYAASSLQSGVPSRFSGSGSGTDFTLTISSLQPEDFATYYCQQSYSTPWTFGQGTKVEIK | binds
MAdCAM antibody Table 1 clone 4 (scFv) scFv: QVQLVQSGAEVKKPGASVKVSCKASGGTFSSYAISWVRQAPGQGLEWMGSINPSGDTTSYAQKFQGRVTMTRDTSTSTVYMELSSLRSEDTAVYYCAKDKAQWLVGYFDYWGQGTLVTVSSGGGGSGGGGSGGGGSGGGGSDIQMTQSPSSLSASVGDRVTITCQASQDISNSLNWYQQKPGKAPKLLIYAASSLQSGVPSRFSGSGSGTDFTLTISSLQPEDFATYYCQQSYSSVITFGQGTKVEIK | binds
MAdCAM antibody Table 1 clone 27 (scFv) scFv: QVQLVQSGAEVKKPGASVKVSCKASGYTFTGYYIHWVRQAPGQGLEWMGWMNPNSGNTGYAQKFQGRVTMTRDTSTSTVYMELSSLRSEDTAVYYCARDPGFLGYCSGGSCYDGWFDPWGQGTLVTVSSGGGGSGGGGSGGGGSGGGGSDIQMTQSPSSLSASVGDRVTITCRASQSISSYLHWYQQKPGKAPKLLIYAASSLQSGVPSRFSGSGSGTDFTLTISSLQPEDFATYYCQQSYTAPYTFGQGTKLEIK | binds
